Sourced from PubChem BioAssay AID434933

tested on: HepG2 viability, CellTiter-Glo ATP luminescence; test: HepG2 viability loss – cell-based, luminescence, dose response, cytotoxicity control for TPT1 inhibitor project, late-stage follow-up (AID 434933)
The source made the active and inactive calls.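 The calls were made as follows: active = compound with HepG2 cell viability IC50 of 10 micromolar or lower; inactive = IC50 above 10 micromolar.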
Collected IC50 values appear next to each entry.
measurementName: IC50

INSERT INTO assay_data (molecule, reportedresult) VALUES
  ('Cc1[nH]n(-c2ccc(S(=O)(=O)O)cc2)c(=O)c1N[N-]c1ccc(C2=CC(=O)/C(=N\[N-]c3ccc4c(S(=O)(=O)O)cc(S(=O)(=O)O)c(N)c4c3O)C=C2)cc1O.[Cu+].[Cu+]', '53.6 µM (inactive)'),
  ('NS(=O)(=O)c1cc(C(=O)NC2CCSc3ccccc32)ccc1Cl (centres undefined)', '> 79.4 µM (inactive)'),
  ('Cc1cc(C)n(Cc2ccc(C(=O)NN=Cc3ccc(-c4ccc([N+](=O)[O-])cc4)o3)o2)n1', '72.7 µM (inactive)'),
  ('NC(=O)c1cc[n+](CC2=C(C(=O)O)N3C(=O)[C@@H](NC(=O)C(c4ccccc4)S(=O)(=O)O)[C@H]3SC2)cc1 (some centres undefined)', '> 79.4 µM (inactive)');

====

test system: HepG2 viability, CellTiter-Glo ATP luminescence; experiment: HepG2 viability loss – cell-based, luminescence, dose response, cytotoxicity control for TPT1 inhibitor project, late-stage follow-up (AID 434933)
Calls of active or inactive are those of the source.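 Rule for the calls: active = compound with HepG2 cell viability IC50 of 10 micromolar or lower; inactive = IC50 above 10 micromolar.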
Listing: IC50 of selected compounds
measurementName: IC50

INSERT INTO assay_data (compound, measurementname, reportedresult) VALUES
  ('COc1ccc(OC)c(N2C(=O)/C(=C/c3ccco3)C(=O)NC2=S)c1', 'IC50', '> 79.4 µM (inactive)'),
  ('OC(Cn1cncn1)(Cn1cncn1)c1ccc(F)cc1F', 'IC50', '> 79.4 µM (inactive)'),
  ('Cc1ccc(N2C(=O)NC(=O)/C(=C\c3ccc([N+](=O)[O-])o3)C2=O)cc1', 'IC50', '53.5 µM (inactive)'),
  ('O=c1oc2c(O)c(O)cc3c(=O)oc4c(O)c(O)cc1c4c23', 'IC50', '> 79.4 µM (inactive)'),
  ('CC1=C(C#N)C(=O)N(C2CCS(=O)(=O)C2)C(=O)/C1=C\c1ccco1 (stereo not given)', 'IC50', '> 79.4 µM (inactive)');
